- target.or.test.system: ZjPYL2 with AtHAB1 (Zoysia japonica, UniProt A0A2D1UXP2)
- Construct: H6-SUMO-ZjPYL2 and biotin-MBP-AtHAB1 (172-511), E. coli; tags kept; with Protein phosphatase 2C 16 (HAB1, Arabidopsis thaliana)
- Sequence (A0A2D1UXP2 1-216): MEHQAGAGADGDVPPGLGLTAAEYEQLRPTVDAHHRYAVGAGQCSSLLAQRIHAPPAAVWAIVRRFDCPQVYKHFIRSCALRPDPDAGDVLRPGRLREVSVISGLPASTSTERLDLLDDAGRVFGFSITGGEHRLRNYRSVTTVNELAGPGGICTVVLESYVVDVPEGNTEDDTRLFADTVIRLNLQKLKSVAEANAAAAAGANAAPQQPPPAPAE
- Sequence (Q9CAJ0 172-511 partner): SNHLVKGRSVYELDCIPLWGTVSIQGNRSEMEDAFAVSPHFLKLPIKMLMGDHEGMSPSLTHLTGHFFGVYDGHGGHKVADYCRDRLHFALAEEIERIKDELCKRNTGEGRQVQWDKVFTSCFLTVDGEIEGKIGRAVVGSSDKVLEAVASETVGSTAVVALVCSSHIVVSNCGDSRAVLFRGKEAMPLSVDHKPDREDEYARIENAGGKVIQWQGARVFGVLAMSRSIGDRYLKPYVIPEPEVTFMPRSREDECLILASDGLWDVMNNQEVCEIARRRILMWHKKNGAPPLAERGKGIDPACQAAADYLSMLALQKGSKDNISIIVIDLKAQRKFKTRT
- measurement.protocol: AlphaScreen, ABA-dependent receptor-PP2C interaction
pEC50: −log10 of the molar value.

{"columns": ["molecule", "target.or.test.system", "pEC50"],
 "data": [
  ["CC1=CC(=O)CC(C)(C)C1(O)/C=C/C(C)=C\\C(=O)O (stereo in doubt) [(+)-ABA]", "ZjPYL2 with AtHAB1 (Zoysia japonica, UniProt A0A2D1UXP2)", 5.43]
]}
